Property: GI50; scope: individual compounds
Tested on: A549
assay.summary: Cytotoxicity against human A549 cells after 48 hrs by SRB assay
Assay type: functional, cell-based
assay.conditions: Homo sapiens, A549, 48 h; read-out: GI50
recorded.metric: GI50 (nM)

smiles_text=C/C=C1\NC(=O)[C@@H]2Cc3ccccc3CN2C(=O)[C@@H](C(C)C)NC(=O)[C@@H]([C@H](C)CC)NC(=O)[C@H](NC(=O)[C@H](NC(=O)[C@H](CCCN)NC(=O)[C@H]2CCCN2C(=O)[C@H](NC(=O)[C@@H](NC(=O)[C@@H](NC(=O)[C@H](NC(=O)CC[C@@H](C)CC)C(C)C)[C@@H](C)O)C(C)C)C(C)C)[C@H](C)CC)[C@H](C)OC(=O)[C@H](C(C)C)NC1=O target=A549 recorded_metric=GI50 result_value=1750
smiles_text=C/C=C1\NC(=O)[C@H](Cc2ccc(F)cc2)NC(=O)[C@@H](C(C)C)NC(=O)[C@@H]([C@H](C)CC)NC(=O)[C@H](NC(=O)[C@H](NC(=O)[C@H](CCCN)NC(=O)[C@H]2CCCN2C(=O)[C@H](NC(=O)[C@@H](NC(=O)[C@@H](NC(=O)[C@H](NC(=O)CC[C@@H](C)CC)C(C)C)[C@@H](C)O)C(C)C)C(C)C)[C@H](C)CC)[C@H](C)OC(=O)[C@H](C(C)C)NC1=O target=A549 recorded_metric=GI50 result_value=1010
smiles_text=C/C=C1\NC(=O)[C@H](Cc2ccccc2)NC(=O)[C@@H](C(C)C)NC(=O)[C@@H]([C@H](C)CC)NC(=O)[C@H](NC(=O)[C@H](NC(=O)[C@H](CCCN)NC(=O)[C@H]2Cc3ccccc3CN2C(=O)[C@H](NC(=O)[C@@H](NC(=O)[C@@H](NC(=O)[C@H](NC(=O)CC[C@@H](C)CC)C(C)C)[C@@H](C)O)C(C)C)C(C)C)[C@H](C)CC)[C@H](C)OC(=O)[C@H](C(C)C)NC1=O target=A549 recorded_metric=GI50 result_value=1430
smiles_text=C/C=C1\NC(=O)[C@H](Cc2ccccc2)NC(=O)[C@@H](C(C)C)NC(=O)[C@@H]([C@H](C)CC)NC(=O)[C@H](NC(=O)[C@H](NC(=O)[C@H](CCCN)NC(=O)[C@H]2CCCN2C(=O)[C@H](NC(=O)[C@@H](NC(=O)[C@@H](NC(=O)[C@H](NC(=O)CCCCC(C)(F)F)C(C)C)[C@@H](C)O)C(C)C)C(C)C)[C@H](C)CC)[C@H](C)OC(=O)[C@H](C(C)C)NC1=O target=A549 recorded_metric=GI50 result_value=2030
smiles_text=C/C=C1\NC(=O)[C@H](Cc2ccccc2)NC(=O)[C@@H](C(C)C)NC(=O)[C@@H]([C@H](C)CC)NC(=O)[C@H](NC(=O)[C@H](NC(=O)[C@H](CCCN)NC(=O)[C@H]2CCCN2C(=O)[C@H](NC(=O)[C@H](CCC2CCCCC2)NC(=O)[C@@H](NC(=O)[C@H](NC(=O)CCCC(C)C)C(C)C)[C@@H](C)O)C(C)C)[C@H](C)CC)[C@H](C)OC(=O)[C@H](C(C)C)NC1=O target=A549 recorded_metric=GI50 result_value=186

Where do these numbers come from? They come from ChEMBL document CHEMBL1156597.
